// provenance: patent US11098063B2

# MEASUREMENT_TARGET: human TASK-3 (Homo sapiens (Human), UniProt Q9NPC2)
# Sequence (Q9NPC2 whole entry): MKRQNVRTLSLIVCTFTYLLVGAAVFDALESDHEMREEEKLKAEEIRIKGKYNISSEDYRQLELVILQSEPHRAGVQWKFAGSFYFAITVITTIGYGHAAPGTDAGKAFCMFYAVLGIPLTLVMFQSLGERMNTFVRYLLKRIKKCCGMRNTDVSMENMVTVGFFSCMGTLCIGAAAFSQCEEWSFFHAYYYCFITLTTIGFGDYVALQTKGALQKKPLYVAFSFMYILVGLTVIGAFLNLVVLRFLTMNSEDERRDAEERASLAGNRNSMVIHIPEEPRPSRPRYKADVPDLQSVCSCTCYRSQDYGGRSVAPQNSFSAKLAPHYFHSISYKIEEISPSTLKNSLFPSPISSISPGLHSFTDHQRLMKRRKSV
# ASSAY_PROTOCOL: Inhibition of recombinant TASK-3 in stably transfected CHO cells (voltage-sensitive dye, KCl depolarization)
# Format: cell-based
# EXPERIMENTAL_CONDITIONS: depolarization by 40 mM potassium chloride
For each of the molecules below, state its pIC50.
Remember, pIC50 is on a log scale: it is -log10 of the molar concentration.

Param readout = pIC50; param system = human TASK-3 (Homo sapiens (Human), UniProt Q9NPC2); param query = CSc1cccc(C(=O)N2C3COCC2CN(Cc2c(-c4ccc(Cl)cc4)nc4ncccn24)C3)n1 ; response: value 7.92

Item: CC(C)CNC(=O)N1C2CCC1CN(Cc1c(-c3ccc(Cl)cc3)nc3ncccn13)C2 Test system: human TASK-3 (Homo sapiens (Human), UniProt Q9NPC2) Read-out: pIC50 Value: ? 6.29

// lookup pIC50 | system=human TASK-3 (Homo sapiens (Human), UniProt Q9NPC2) | key= CC(C)(C)OC(=O)N1C2CCC1CN(Cc1c(-c3ccc(Br)cc3)nc3ncccn13)C2 7.89

Checklist item: pIC50 tested on human TASK-3 (Homo sapiens (Human), UniProt Q9NPC2), entry COc1cccc(C(=O)N2C3CCC2CN(Cc2c(-c4ccc(C5CC5)cc4)nc4ncccn24)C3)n1 , value? 6.74

====

# MEASUREMENT_TARGET: human TASK-1 (Homo sapiens (Human))
# Sequence (O14649 whole entry): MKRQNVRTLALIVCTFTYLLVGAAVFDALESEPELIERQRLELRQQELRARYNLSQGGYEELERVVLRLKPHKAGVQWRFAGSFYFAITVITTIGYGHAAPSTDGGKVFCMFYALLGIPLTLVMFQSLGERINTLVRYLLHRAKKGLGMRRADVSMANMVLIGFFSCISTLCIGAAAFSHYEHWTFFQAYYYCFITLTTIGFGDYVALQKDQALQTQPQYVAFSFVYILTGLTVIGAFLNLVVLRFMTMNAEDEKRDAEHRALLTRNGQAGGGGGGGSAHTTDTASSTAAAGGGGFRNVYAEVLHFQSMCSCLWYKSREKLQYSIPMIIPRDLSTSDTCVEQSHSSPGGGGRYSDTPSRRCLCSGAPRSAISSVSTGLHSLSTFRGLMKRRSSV
# ASSAY_PROTOCOL: Inhibition of recombinant TASK-1 in stably transfected CHO cells (voltage-sensitive dye, KCl depolarization)
# Format: cell-based
# EXPERIMENTAL_CONDITIONS: depolarization by 40 mM potassium chloride
# Method: B-2. Inhibition of Recombinant TASK-1 and TASK-3 In Vitro The investigations on the inhibition of the recombinant TASK-1 and TASK-3 channels were conducted using stably transfected CHO cells. […] 6 (5), 305-312 (2001); Molecular Devices FLIPR Application Note: Measuring membrane potential using the FLIPR® membrane potential assay kit on Fluorometric Imaging Plate Reader (FLIPR®) systems, http://www.moleculardevices.com/reagents-supplies/assay-kits/ion-channels/flipr-membrane-potential-assay-kits]. […]
ENDPOINT_NAME: log10 IC50 (log10 of the value in µM)
Values are log10 of IC50 in µM.

Return reported log10 IC50; argument: O=C(c1nc(C(F)(F)F)cs1)N1C2CCC1CN(Cc1c(-c3ccc(Cl)cc3)nc3ncccn13)C2 [Example 60] -0.17

Any idea what log10 IC50 was measured for COc1ccc(F)c(C(=O)N2C3CCC2CN(Cc2c(-c4ccc(Br)cc4)nc4ncccn24)C3)n1 [Example 82] ? -0.17

Find the recorded log10 IC50 belonging to O=C(Nc1c(Cl)cccc1Cl)N1C2CCC1CN(Cc1c(-c3ccc(Cl)cc3)nc3ncccn13)C2 [Example 91] and report it. 1.30

Requested field: log10 IC50. Item: COc1ccc(F)c(C(=O)N2CC3CCC2CN3Cc2c(-c3ccc(C(C)C)cc3)nc3ncccn23)n1 (centres unmarked) [Example 72] 0.32

Requested read-out: log10 IC50. Entry: CC(C)c1ccc(-c2nc3ncccn3c2CN2CC3CCC(C2)N3C(=O)c2ccccc2F)cc1 [Example 64] 0.04

Request the reported log10 IC50 associated with COc1cccc(C(=O)N2CC3CCC2CN3Cc2c(-c3ccc(Cl)cc3)nc3ncccn23)n1 (centres unmarked) [Example 40] 0.76

Quick check: log10 IC50 of CC(C)c1ccc(-c2nc3ncccn3c2CN2CC3COCC(C2)N3C(=O)c2ccccc2F)cc1 [Example 68] ? 0.97

Reported log10 IC50, compound O=C(NC1CCCCC1)N1C2CCC1CN(Cc1c(-c3ccc(Cl)cc3)nc3ncccn13)C2 [Example 100] : ____ 1.28

====

For each entry below, report its log10(IC50) value.
# MEASUREMENT_TARGET: human TASK-3 (Homo sapiens (Human), UniProt Q9NPC2)
# ASSAY_PROTOCOL: Inhibition of recombinant TASK-3 in stably transfected CHO cells (voltage-sensitive dye, KCl depolarization)
# Format: cell-based
# EXPERIMENTAL_CONDITIONS: depolarization by 40 mM potassium chloride
// units: nM (pre-log); metric: IC50; scale: log10

Entry O=C(Nc1c(Cl)cccc1Cl)N1C2CCC1CN(Cc1c(-c3ccc(Cl)cc3)nc3ncccn13)C2 [Example 91] has what log10(IC50)? 2.61

What does the record list as log10(IC50) for COC(=O)N1C2CCC1CN(Cc1c(-c3ccc(Cl)cc3)nc3ncccn13)C2 [Example 123] ? 2.36

Using the record for COc1ccc(Cl)c(C(=O)N2C3COCC2CN(Cc2c(-c4ccc(C(C)C)cc4)nc4ncccn24)C3)n1 [Example 67] , report its log10(IC50). 1.23

Requested field: log10(IC50). Item: CC(C)c1ccc(-c2nc3ncccn3c2CN2CC3COCC(C2)N3C(=O)c2ccccc2F)cc1 [Example 68] 1.94

Would you kindly share the measured log10(IC50) for CCOC(=O)N1C2CCC1CN(Cc1c(-c3ccc(Cl)cc3)nc3ncccn13)C2 [Example 124] ? 1.23

Look up log10(IC50) for this compound: CCN(C(=O)N1C2CCC1CN(Cc1c(-c3ccc(Cl)cc3)nc3ncccn13)C2)c1ccccc1 [Example 114] 2.15

Returns the measured log10(IC50) for the input compound. Input: CC(C)c1ccc(-c2nc3ncccn3c2CN2CC3CCC2CN3C(=O)c2ncoc2C2CC2)cc1 (single isomer, unassigned) [Example 27] 1.00

Can you look up the measured log10(IC50) of CC(C)(C)OC(=O)N1C2CCC1CN(Cc1c(-c3ccc(C4CC4)cc3)nc3ncccn13)C2 [Example 132] for me? 2.61

Name the recorded log10(IC50) for CC(C)c1ocnc1C(=O)N1C2CCC1CN(Cc1c(-c3ccc(Cl)cc3)nc3ncccn13)C2 [Example 49] . 1.08

Can you share its log10(IC50)? I mean this compound: O=C(N1CCCCC1)N1C2CCC1CN(Cc1c(-c3ccc(Cl)cc3)nc3ncccn13)C2 [Example 116] 1.81

Suppose we examine the compound CC(C)c1ccc(-c2nc3ncccn3c2CN2CC3COCC(C2)N3C(=O)c2cccc(OC(F)F)n2)cc1 [Example 19] ; what log10(IC50) value has been reported? 1.77

Quick one: log10(IC50) of O=C(c1cncs1)N1C2CCC1CN(Cc1c(-c3ccc(Cl)cc3)nc3ncccn13)C2 [Example 55] ? 2.23

Would you kindly share the measured log10(IC50) for COc1ccc(F)c(C(=O)N2C3CCC2CN(Cc2c(-c4ccc(Cl)cc4)nc4ncccn24)C3)n1 [Example 22] ? 0.72

May I ask what log10(IC50) has been recorded for COc1cccc(CN(C)C(=O)N2C3CCC2CN(Cc2c(-c4ccc(Cl)cc4)nc4ncccn24)C3)c1 [Example 121] ? 2.08

If you can, please state the reported log10(IC50) value of COc1ccc(F)c(C(=O)N2CC3CCC2CN3Cc2c(-c3ccc(C(C)C)cc3)nc3ncccn23)n1 (stereo not shown) [Example 72] . 1.46

# input compound: COc1cccc(C(=O)N2CC3CCC2CN3Cc2c(-c3ccc(Cl)cc3)nc3ncccn23)c1 (stereo not shown) [Example 38] ; wanted: its log10(IC50) 2.51

====

# MEASUREMENT_TARGET: human TASK-1 (Homo sapiens (Human))
# ASSAY_PROTOCOL: Inhibition of recombinant TASK-1 in stably transfected CHO cells (voltage-sensitive dye, KCl depolarization)
# Assay type: cell-based
# EXPERIMENTAL_CONDITIONS: depolarization by 40 mM potassium chloride
pIC50: −log10 of the molar value.
Label yes when pIC50 >= 6; otherwise no.

Threshold query (pIC50 >= 6) on O=C(c1coc(C2CC2)n1)N1C2CCC1CN(Cc1c(-c3ccc(Cl)cc3)nc3ncccn13)C2 no

Check this compound for pIC50 at or above 6: CCN(C(=O)N1C2CCC1CN(Cc1c(-c3ccc(Cl)cc3)nc3ncccn13)C2)C1CCCCC1 no

Item O=C(c1ncoc1C1CC1)N1C2COCC1CN(Cc1c(-c3ccc(Cl)cc3)nc3ncccn13)C2 with pIC50 of 6 or above? no

Does pIC50 meet or surpass 6 for O=C(c1cncs1)N1C2CCC1CN(Cc1c(-c3ccc(Cl)cc3)nc3ncccn13)C2 ? no

Hi, just wondering whether COc1cccc(C(=O)N2CC3CCC2CN3Cc2c(-c3ccc(C(C)C)cc3)nc3ncccn23)n1 (stereo not shown) [Example 74] shows pIC50 of 6 or higher. no

Is reported pIC50 greater than or equal to 6 here: O=C(c1ccccc1F)N1C2COCC1CN(Cc1c(-c3ccc(Cl)cc3)nc3ncccn13)C2 no

Please tell me: is the compound CC(C)c1ccc(-c2nc3ncccn3c2CN2CC3COCC(C2)N3C(=O)c2cccc(OC(F)F)n2)cc1 at or over 6 in terms of pIC50? no

Could you tell me if the measured pIC50 of CN(C(=O)N1C2CCC1CN(Cc1c(-c3ccc(Cl)cc3)nc3ncccn13)C2)c1ccccc1 reaches 6 or more? no

Entry COc1cccc(C(=O)N2C3CCC2CN(Cc2c(-c4ccc(Cl)cc4)nc4ncccn24)C3)n1 : is its pIC50 no less than 6? yes

Determine whether measured pIC50 meets or exceeds 6 for O=C(Nc1cccc(Cl)c1)N1C2CCC1CN(Cc1c(-c3ccc(Cl)cc3)nc3ncccn13)C2 no

Exam item: decide whether the reported pIC50 for O=C(C1CCCC1)N1C2CCC1CN(Cc1c(-c3ccc(Br)cc3)nc3ncccn13)C2 is at least 6. yes
